study system: T1, IL-1β (UniProt P01584 117-269)
T1 construct: Antigen immobilised on the Biacore chip
procedure details: Biacore, periplasmic extract
readout kind: fold difference in affinity vs original (fold)
Write the answer as a number in fold, unit excluded.

binder	fold difference in affinity vs original, fold
XPA23 light chain N30H (Fab, V domains shown) VH: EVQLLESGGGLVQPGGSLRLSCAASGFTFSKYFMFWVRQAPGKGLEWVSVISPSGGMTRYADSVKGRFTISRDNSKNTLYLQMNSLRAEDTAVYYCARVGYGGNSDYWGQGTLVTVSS VL: DIQMTQSPSSVSASVGDRLTIICRASQDIHRWLAWYQQTPGNAPKLLIHSATSLQSGVPSRFSGSGSGTDFTLTINSLQPEDFATYYCQQADSFPLTFGGGTKVEIK	1
XPA23 light chain H49W (Fab, V domains shown) VH: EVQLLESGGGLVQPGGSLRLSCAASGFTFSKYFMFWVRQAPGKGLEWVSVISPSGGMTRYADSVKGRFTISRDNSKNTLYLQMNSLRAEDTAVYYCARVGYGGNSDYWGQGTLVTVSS VL: DIQMTQSPSSVSASVGDRLTIICRASQDINRWLAWYQQTPGNAPKLLIWSATSLQSGVPSRFSGSGSGTDFTLTINSLQPEDFATYYCQQADSFPLTFGGGTKVEIK	0.21
XPA23 light chain S50E (Fab, V domains shown) VH: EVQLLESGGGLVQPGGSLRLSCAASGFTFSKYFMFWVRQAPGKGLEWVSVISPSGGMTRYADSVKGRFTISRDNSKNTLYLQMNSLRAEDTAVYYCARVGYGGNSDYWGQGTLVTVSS VL: DIQMTQSPSSVSASVGDRLTIICRASQDINRWLAWYQQTPGNAPKLLIHEATSLQSGVPSRFSGSGSGTDFTLTINSLQPEDFATYYCQQADSFPLTFGGGTKVEIK	0.02
XPA23 light chain S50I (Fab, V domains shown) VH: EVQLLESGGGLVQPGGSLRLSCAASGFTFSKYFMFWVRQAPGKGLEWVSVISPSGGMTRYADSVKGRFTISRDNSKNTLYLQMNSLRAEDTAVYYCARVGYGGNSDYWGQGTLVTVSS VL: DIQMTQSPSSVSASVGDRLTIICRASQDINRWLAWYQQTPGNAPKLLIHIATSLQSGVPSRFSGSGSGTDFTLTINSLQPEDFATYYCQQADSFPLTFGGGTKVEIK	0.25
XPA23 light chain L96H (Fab, V domains shown) VH: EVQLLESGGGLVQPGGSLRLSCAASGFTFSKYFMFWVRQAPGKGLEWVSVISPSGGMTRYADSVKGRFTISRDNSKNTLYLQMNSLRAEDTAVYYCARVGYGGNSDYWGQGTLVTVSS VL: DIQMTQSPSSVSASVGDRLTIICRASQDINRWLAWYQQTPGNAPKLLIHSATSLQSGVPSRFSGSGSGTDFTLTINSLQPEDFATYYCQQADSFPHTFGGGTKVEIK	0.07

Shift focus to the following entry.
Record XPA23 light chain S93Y (Fab, V domains shown) VH: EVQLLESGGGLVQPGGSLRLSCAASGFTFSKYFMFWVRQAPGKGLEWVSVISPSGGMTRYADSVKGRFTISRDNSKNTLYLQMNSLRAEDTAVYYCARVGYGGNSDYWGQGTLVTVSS VL: DIQMTQSPSSVSASVGDRLTIICRASQDINRWLAWYQQTPGNAPKLLIHSATSLQSGVPSRFSGSGSGTDFTLTINSLQPEDFATYYCQQADYFPLTFGGGTKVEIK . Reported fold difference in affinity vs original: 1.45
